Target: acetylcholine receptor
Test: SPR, AchR immobilised, peptide 10 uM
Below: a set of entries, each annotated with reported Binding affinity (RU).
I'd appreciate it if you wrote the number followed by its unit.

Recorded Binding affinity (RU), per entry:
{"columns": ["binder", "Binding affinity (RU)"],
 "data": [
  ["KKTTWK [6mer-1-635]", "33 RU"],
  ["KKPTDR [6mer-1-1125]", "26 RU"]
]}

Fill in: Binding affinity (RU) of KRHNVR [6mer-1-617] is ___ 31 RU

Give its Binding affinity (RU) value. Item: KKFKDR [6mer-1-663] 26 RU

Can you share its Binding affinity (RU)? I mean this binder: RKYKDR [6mer-1-636] 27 RU

Given the binder RKATFR [6mer-1-1130] , what is its reported Binding affinity (RU)? 31 RU

# lookup: Binding affinity (RU) of RRPTHK [6mer-1-656] 28 RU

# query: Binding affinity (RU) of entry RKYMWK [6mer-1-1073] 27 RU
